# Assayed Target: human adenosine A2A receptor (Homo sapiens)
# Construct: expressed in transfected cells; host or cells: CHO cells, Semliki Forest virus expression system; membrane preparation
# Sequence (P29274 whole entry): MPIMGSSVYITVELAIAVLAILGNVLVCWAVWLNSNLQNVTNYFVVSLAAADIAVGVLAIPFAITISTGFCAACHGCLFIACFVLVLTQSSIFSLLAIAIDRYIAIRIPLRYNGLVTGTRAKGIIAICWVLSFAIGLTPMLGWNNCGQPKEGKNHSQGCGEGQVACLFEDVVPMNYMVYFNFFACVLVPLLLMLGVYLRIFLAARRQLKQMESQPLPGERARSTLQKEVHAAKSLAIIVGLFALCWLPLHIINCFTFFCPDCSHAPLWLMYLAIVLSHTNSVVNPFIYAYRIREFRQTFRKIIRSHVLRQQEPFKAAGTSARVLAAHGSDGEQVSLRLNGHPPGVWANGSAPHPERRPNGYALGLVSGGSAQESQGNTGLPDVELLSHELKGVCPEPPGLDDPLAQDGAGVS
# Test Protocol: Human adenosine A2A receptor [3H]-SCH-58261 binding assay
# Settings: calculated ratio of the affinity to the HA1 receptor to the HA2a receptor
Metric: selectivity (A1/A2a)

Request: I would be grateful if you could share the reported selectivity (A1/A2a) for Cc1ccsc1-c1nc2cc(C(=O)N(Cc3ccccc3)C(C)C)cc(N)n2n1 [Example 144] .
Result: 12.9

Request: I would be grateful if you could share the reported selectivity (A1/A2a) for Nc1cc(C(=O)N2CCCCCC2)cc2nc(-c3ccc(Br)o3)nn12 [Example 296] .
Result: 31.0

Request: I would be grateful if you could share the reported selectivity (A1/A2a) for COc1ccccc1CNC(=O)c1cc(N)n2nc(-c3cccnc3)nc2c1 [Example 87] .
Result: 5.2

A = CCCCNC(=O)c1cc(N)n2nc(-c3nccs3)nc2c1 [Example 119]
B = Nc1cc(C(=O)NC2CCc3ccccc32)cc2nc(-c3ccccc3)nn12 (centres unmarked) [Example 149]
Request: // compare measured selectivity (A1/A2a), left A , right B , return larger The response must carry the label of the picked entry.
Result: A
(A: 25.0, B: 1.7)

A = Cc1ccc(-c2nc3cc(C(=O)N(C)C4CCCCC4)cc(N)n3n2)o1 [Example 100]
B = Nc1cc(C(=O)NCCc2ccccc2F)cc2nc(-c3ccccn3)nn12 [Example 40]
Request: I would appreciate it if you could say which entry, A or B , has the lower selectivity (A1/A2a) value. The response must carry the label of the picked entry.
Result: B

1 = Nc1cc(C(=O)N2CC=CCC2)cc2nc(-c3ccc(Br)o3)nn12 [Example 294]
2 = CC(NC(=O)c1cc(N)n2nc(-c3ccoc3)nc2c1)c1ccccc1 (centres unmarked) [Example 225]
3 = CCN(CC)C(=O)c1cc(N)n2nc(-c3cc(Br)co3)nc2c1 [Example 169]
4 = CCN(Cc1ccccc1F)C(=O)c1cc(N)n2nc(-c3ccc[nH]3)nc2c1 [Example 85]
Request: # rank_down: sort by selectivity (A1/A2a), max first Respond with an ordered listing of the labels, as requested.
Result: 1, 4, 3, 2
(1: 35.0, 4: 8.3, 3: 3.4, 2: 1.2)

====

# Assayed Target: human adenosine A2A receptor (Homo sapiens)
# Construct: expressed in transfected cells; host or cells: CHO cells, Semliki Forest virus expression system; membrane preparation
# Test Protocol: Human adenosine A2A receptor [3H]-SCH-58261 binding assay
# Settings: affinity to human adenosine A2A receptor; read-out: Ki HA2A
pKi: −log10 of the molar value.
Metric: pKi

Examples with their reported pKi follow.
Request: Which measured pKi belongs to `CCN(Cc1ccccc1)C(=O)c1cc(N)n2nc(-c3ccccn3)nc2c1` , tested on human adenosine A2A receptor (Homo sapiens)?
Result: 7.80

Request: Which measured pKi belongs to `Nc1cc(C(=O)NCc2ccc(Cl)cc2)cc2nc(-c3nccs3)nn12` , tested on human adenosine A2A receptor (Homo sapiens)?
Result: 6.80

Request: Which measured pKi belongs to `Cc1ccsc1-c1nc2cc(C(=O)N(Cc3ccccc3)C(C)C)cc(N)n2n1` , tested on human adenosine A2A receptor (Homo sapiens)?
Result: 7.20

I = CC(C)N(C)C(=O)c1cc(N)n2nc(-c3nccs3)nc2c1
II = CCN(CC)CCN(CC)C(=O)c1cc(N)n2nc(-c3ccc(Br)o3)nc2c1
Request: // compare measured pKi, left I , right II , return larger The response must carry the label of the picked entry.
Result: II
(II: 7.31, I: 7.08)

a = CCCN(CC1CC1)C(=O)c1cc(N)n2nc(-c3nccs3)nc2c1
b = Nc1cc(C(=O)NCc2ccccc2Br)cc2nc(-c3cccnc3)nn12
Request: I would appreciate it if you could say which entry, a or b , has the lower pKi value. The response must carry the label of the picked entry.
Result: b

1 = CCCCNC(=O)c1cc(N)n2nc(-c3ccccc3)nc2c1
2 = Nc1cc(C(=O)NCc2ccccc2Br)cc2nc(-c3cc(Br)co3)nn12
3 = Cc1ccc(-c2nc3cc(C(=O)N4CCOCC4)cc(N)n3n2)o1
4 = Cc1ccc(-c2nc3cc(C(=O)NCc4ccccc4)cc(N)n3n2)s1
Request: Number of compounds to sort: 4. Sort criterion: pKi, ascending. Respond with an ordered listing of the labels, as requested.
Result: 4, 3, 1, 2

P = CCN(CC)C(=O)c1cc(N)n2nc(-c3ccc(OC)s3)nc2c1
Q = Nc1cc(C(=O)NCc2ccccc2)cc2nc(-c3ccccc3)nn12
R = Nc1cc(C(=O)N(Cc2ccccc2)Cc2ccccc2)cc2nc(-c3ccc(Br)o3)nn12
Request: Number of compounds to sort: 3. Sort criterion: pKi, ascending. Respond with an ordered listing of the labels, as requested.
Result: P, Q, R
